Parameter GI50: see the listing below.
System: SW-620
Experiment: NCI tumour cell line growth inhibition, 48 h
Activity calls are given as the source filed them. Cut-off read from the data, not from the text of the source: active = GI50 up to about 1.1 µM and inactive = higher.

Example compounds with recorded GI50:
>>> reported("CCOC(=O)C1(C#N)C(c2ccccc2)CC(O)(c2ccc([N+](=O)[O-])cc2)C(C(=O)c2ccc([N+](=O)[O-])cc2)C1c1ccccc1 (stereo unspecified)")
"> 100 µM (inactive)"
>>> reported("CC(C)(C)C(=O)/C=C(\\OB(F)F)C(C)(C)C")
"> 100 µM (inactive)"
>>> reported("C/C=C1/CN2CCC3(O)c4ccccc4N4C=C(C(=O)OC)C1CC2C43O (stereo unspecified)")
"> 100 µM (inactive)"
>>> reported("CN(C)c1nc2n(CCO)ccnc-2c(=O)n1")
"> 100 µM (inactive)"
>>> reported("Oc1ccc(-c2cc(-c3cc(-c4ccc(O)cc4)no3)on2)cc1")
"> 30.3 µM (inactive)"

IN: Check the records and state GI50 for `CC(=O)Nc1c(Nc2ccccc2)[nH]c(C)nc1=S`
OUT: > 100 µM (inactive)

----------
Tested on: SNB-75
Assay: NCI tumour cell line growth inhibition, 48 h
Active and inactive are the calls of the source. Cut-off read from the data, not from the text of the source: active = GI50 up to about 1.1 µM and inactive = higher.
// one of active, inactive, no free text

>>> qualitative_label("CCCOCN1COCN/C1=N\\C#N")
"inactive"
>>> qualitative_label("CCNC(=O)COc1ccc(Cl)cc1Cl")
"inactive"
>>> qualitative_label("COc1cccc(N[C@@H]2c3cc4c(cc3C(c3cc(OC)c(O)c(OC)c3)[C@H]3C(=O)OCC32)OCO4)c1 (stereo partly specified)")
"active"
>>> qualitative_label("CC1(C)[C@@H](Cn2cnc3c(Cl)nc(N)nc32)CC[C@@]1(C)CO")
"inactive"
>>> qualitative_label("Cc1ccc(CNNC(=O)c2cc[n+]([BH2-]C#N)cc2)cc1")
"inactive"

IN: In this assay, the call recorded for COc1ccc(C(C2=C(O)CC(C)OC2=O)C2=C(O)CC(C)OC2=O)cc1 (stereo unspecified) was what?
OUT: inactive

IN: In this assay, the call recorded for O=c1[nH]c(=O)n(C2OC(CO)C(O)C2O)c2c1CCCC2 (stereo unspecified) was what?
OUT: inactive

IN: In this assay, the call recorded for CC(=O)OC1CC2OC(Cc3ccccc32)O1 (stereo unspecified) was what?
OUT: inactive

IN: In this assay, the call recorded for `Cc1cnoc1/N=C1\C=C(O)C(=O)c2ccccc21` was what?
OUT: inactive

IN: In this assay, the call recorded for O=c1[nH]c(=O)n(C2CC(O)C(CO)O2)cc1/N=N/NCc1ccccc1 (stereo unspecified) was what?
OUT: inactive

IN: In this assay, the call recorded for `C[C@]1(O)CC[C@H]2[C@@H]3CCc4cc(O)ccc4[C@H]3CC[C@@]21C` was what?
OUT: inactive

----------
Tested on: SR
Assay: NCI tumour cell line growth inhibition, 48 h
Active and inactive are the calls of the source. Rule as the data show it: active = GI50 up to about 1.1 µM and inactive = higher. Square brackets hold non-standard residues; d marks the D form. Peptide text beside a SMILES is read from it. 2Nal = N[CH](Cc1ccc2ccccc2c1)C(=O)O
// one of 1 (active), 0 (inactive), no free text

Here's what some known entries look like.
>>> qualitative_label("O=C(O)C(Cc1ccc(O)c([N+](=O)[O-])c1)N1C(=O)c2ccccc2C1=O (configuration not stated)")
0
>>> qualitative_label("CC(C)C(NC(=O)C(CCCCN)NC(=O)C(Cc1c[nH]c2ccccc12)NC(=O)C(Cc1ccc(O)cc1)NC(=O)C(CS)NC(=O)C(N)Cc1ccc2ccccc2c1)C(=O)NC(CS)C(=O)NC(C(N)=O)C(C)O (configuration not stated) (H-[2Nal]CYWKVCT-NH2; configuration not given here)")
0

IN: In this assay, the call recorded for COC(=O)C1=C(C(=O)OC)C2C(C)=CC(C)=CN2C(C#N)=C(SC)S1 (configuration not stated) was what?
OUT: 0

IN: In this assay, the call recorded for COC(=O)[C@@H]1COC(C(C)(C)C)N1C(=O)C(c1ccccc1)c1ccccc1 (some centres not stated) was what?
OUT: 1

IN: In this assay, the call recorded for `C[C@H]1C[C@H]2[C@@H]3CCC4=CC(=O)C=C[C@]4(C)C3=CC[C@]2(C)[C@@]1(O)C(=O)CO` was what?
OUT: 0

IN: In this assay, the call recorded for `CN(C)c1nc2n(CCO)ccnc-2c(=O)n1` was what?
OUT: 0

IN: In this assay, the call recorded for `Cc1cccc(/C=N/NC(=S)Nc2ccccc2)n1` was what?
OUT: 0

IN: In this assay, the call recorded for `Nc1ncc(Cc2ccc3c(c2)OCO3)c(N)n1` was what?
OUT: 0

IN: In this assay, the call recorded for `Cc1cc(C[C@H]2O[C@@H]3OC(C)(C)O[C@@H]3[C@H]3OC(C)(C)O[C@H]32)c2ccccc2n1` was what?
OUT: 0

IN: In this assay, the call recorded for `Cc1ccc(-c2cc(O)c3cc4c(cc3n2)OCO4)cc1` was what?
OUT: 1

IN: In this assay, the call recorded for `O=C(N/N=C/c1ccc([N+](=O)[O-])cc1)Nc1ccc(Br)cc1` was what?
OUT: 0

IN: In this assay, the call recorded for `CC(C)(C)C(=O)/C=C(\OB(F)F)C(C)(C)C` was what?
OUT: 0
